// provenance: patent US20110262445A1

Biological target: T1, human IL-12 (human, UniProt P29460 23-328; P29459 23-219)
T1 construct: Recombinant (Peprotech); FLAG-tagged IL-12 in the flow cytometry assays, biotinylated in the IL-12Rβ2 assay; also called hIL-12
T1 sequence 1: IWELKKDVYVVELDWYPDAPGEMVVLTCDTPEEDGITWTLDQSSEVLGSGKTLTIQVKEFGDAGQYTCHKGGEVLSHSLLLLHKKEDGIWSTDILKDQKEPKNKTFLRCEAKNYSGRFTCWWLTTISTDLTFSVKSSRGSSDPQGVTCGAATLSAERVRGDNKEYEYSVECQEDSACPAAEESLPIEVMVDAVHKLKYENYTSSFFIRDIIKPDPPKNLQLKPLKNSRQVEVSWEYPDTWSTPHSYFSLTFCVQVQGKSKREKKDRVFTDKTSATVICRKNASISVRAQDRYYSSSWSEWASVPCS
T1 sequence 2: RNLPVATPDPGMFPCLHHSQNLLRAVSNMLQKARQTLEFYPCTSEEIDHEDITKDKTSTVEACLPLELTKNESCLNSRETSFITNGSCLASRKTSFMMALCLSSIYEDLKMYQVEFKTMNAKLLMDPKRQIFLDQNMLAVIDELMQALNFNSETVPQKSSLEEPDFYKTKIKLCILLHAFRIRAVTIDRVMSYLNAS
Assay: ELISA, coated IL-12

binder	binding result
Antibody 132 (antibody, human IgG1, kappa, V domains shown) VH: EVQLVQSGAEVKKPGATVKISCKASGYTFSDYYLHWVRQAPEKGLEWMGWIDPENGDTEYAPKFQGRVTITADTSTDTGYLELSSLRSEDTAVYYCAANKELRYFDVWGQGTLVTVSS VL: DIQMTQSPSSVSASVGDRVTITCRASQSISINLHWYQQKPHKAPKLLIYFASQSISGVPSRFSGSGSGTDFSLTINSLQPEDFATYYCQQSNSFPLTFGGGTKVEIKR	binds
Antibody 135 (antibody, human IgG1, kappa, V domains shown) VH: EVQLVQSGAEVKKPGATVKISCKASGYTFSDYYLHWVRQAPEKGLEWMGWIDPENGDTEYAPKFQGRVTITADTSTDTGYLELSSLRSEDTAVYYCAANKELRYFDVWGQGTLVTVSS VL: DIQMTQSPSSVSASVGDRVTITCRASQSISINLHWYQQKPGKAPKLLIYFASQSISGIPSRFSGSGSGTDFSLTINSLQPEDFATYYCQQSNSFPLTFGGGTKVEIKR	binds
Antibody 134 (antibody, human IgG1, kappa, V domains shown) VH: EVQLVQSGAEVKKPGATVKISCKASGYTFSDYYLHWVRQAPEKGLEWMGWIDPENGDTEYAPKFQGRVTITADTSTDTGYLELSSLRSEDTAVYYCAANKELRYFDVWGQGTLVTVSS VL: DIQMTQSPSSVSASVGDRVTITCRASQSISINLHWYQQKPGKSPKLLIYFASQSISGVPSRFSGSGSGTDFSLTINSLQPEDFATYYCQQSNSFPLTFGGGTKVEIKR	binds
